Quick reference: IC50 of the listed items.
- SYSTEM TESTED: CB1 (CNR1) (Homo sapiens)
- EXPERIMENT SUMMARY: cAMP CNR1 Hunter cell line antagonist assay (CB1 assay)
- CONDITION SET: antagonist mode, cAMP CNR1 Hunter cells, EC80 agonist; read-out: CB1 assay, Efficacy (IC50)
MEASURED METRIC: IC50

COMPOUND | SYSTEM TESTED | RESULT VALUE
Cc1ccc(NS(=O)(=O)c2c(C)c(Cl)cc3c2OCC(=O)N3)cc1 [BC19432] | CB1 (CNR1) (Homo sapiens) | ≥ 25 µM
Cc1c(Cl)cc2c(c1S(=O)(=O)Nc1ccc(F)c(F)c1)OCC(=O)N2 [BC19489] | CB1 (CNR1) (Homo sapiens) | ≥ 25 µM
CCC1Oc2cc(S(=O)(=O)Nc3ccccc3)c(Br)cc2N(C)C1=O (centres unmarked) [BC19928] | CB1 (CNR1) (Homo sapiens) | ≥ 25 µM
CC1Oc2cc(S(=O)(=O)NCCc3ccc(OC(F)(F)F)cc3)c(Br)cc2NC1=O (centres unmarked) [BC19359] | CB1 (CNR1) (Homo sapiens) | 1 to 25 µM
COc1ccc(NS(=O)(=O)c2cc3c(cc2Br)NC(=O)C(CC(C)C)O3)cc1Cl (centres unmarked) [BC19780] | CB1 (CNR1) (Homo sapiens) | 1 to 25 µM
Cc1ccc(NS(=O)(=O)c2cc(Br)cc3c2OCCNC3=O)cc1F [BC19552] | CB1 (CNR1) (Homo sapiens) | ≥ 25 µM
CC(=O)c1cccc(NS(=O)(=O)c2cc3c(cc2C)NC(=O)CO3)c1 [BC19132] | CB1 (CNR1) (Homo sapiens) | ≥ 25 µM
CC1Oc2c(cc(Br)cc2S(=O)(=O)Nc2ccc(F)c(F)c2)N(C)C1=O (centres unmarked) [BC19787] | CB1 (CNR1) (Homo sapiens) | ≥ 25 µM
CC(C)CC1Oc2cc(S(=O)(=O)Nc3cccc(F)c3)c(Br)cc2NC1=O (centres unmarked) [BC19774] | CB1 (CNR1) (Homo sapiens) | ≥ 25 µM
CCC1Oc2c(cc(Br)cc2S(=O)(=O)Nc2ccc(OC(F)(F)F)cc2)N(C)C1=O (centres unmarked) [BC19921] | CB1 (CNR1) (Homo sapiens) | 1 to 25 µM
CCC1Oc2cc(S(=O)(=O)NCc3ccc(F)cc3F)c(Br)cc2NC1=O (centres unmarked) [BC19368] | CB1 (CNR1) (Homo sapiens) | ≥ 25 µM
CNC(=O)N1c2cc(S(=O)(=O)N3CCCC3)ccc2NC(=O)C1C (centres unmarked) [BC19236] | CB1 (CNR1) (Homo sapiens) | ≥ 25 µM
CCC1Oc2cc(S(=O)(=O)Nc3ccc(Cl)cc3)c(Br)cc2N(C)C1=O (centres unmarked) [BC19930] | CB1 (CNR1) (Homo sapiens) | ≥ 25 µM
CCc1cccc(NS(=O)(=O)c2cc3c(cc2Cl)NC(=O)C(CC)O3)c1 (centres unmarked) [BC19749] | CB1 (CNR1) (Homo sapiens) | 1 to 25 µM

###

Quick reference: IC50 of the listed items.
- SYSTEM TESTED: CB1 (CNR1) (Homo sapiens, UniProt P21554)
- Sequence (P21554 whole entry): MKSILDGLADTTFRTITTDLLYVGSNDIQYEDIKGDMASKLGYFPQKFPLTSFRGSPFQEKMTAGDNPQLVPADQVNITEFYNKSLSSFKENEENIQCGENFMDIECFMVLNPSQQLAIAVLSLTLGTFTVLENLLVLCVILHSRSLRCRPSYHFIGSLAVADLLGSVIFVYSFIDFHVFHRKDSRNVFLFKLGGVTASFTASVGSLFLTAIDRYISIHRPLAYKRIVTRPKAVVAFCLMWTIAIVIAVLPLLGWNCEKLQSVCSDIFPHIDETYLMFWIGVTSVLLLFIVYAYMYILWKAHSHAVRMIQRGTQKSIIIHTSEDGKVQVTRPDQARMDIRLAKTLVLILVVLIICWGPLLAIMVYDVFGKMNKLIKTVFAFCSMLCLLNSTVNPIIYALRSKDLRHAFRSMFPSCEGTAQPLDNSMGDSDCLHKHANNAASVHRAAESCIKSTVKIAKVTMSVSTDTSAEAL
- EXPERIMENT SUMMARY: cAMP CNR1 Hunter cell line antagonist assay (CB1 assay)
- CONDITION SET: antagonist mode, cAMP CNR1 Hunter cells, EC80 agonist; read-out: CB1 assay, Efficacy (IC50)
- Procedure: cAMP CNR1 Hunter cell line (Eurofins DiscoveryX) were expanded from freezer stocks and seeded in a total volume of 20 μL into white walled, 384-well microplates and incubated at 37° C. for the appropriate time prior to testing. […] Microplates were read following signal generation with a PerkinElmer Envision™ instrument for chemiluminescent signal detection. Compound activity (IC50) was analyzed using CBIS data analysis suite (ChemInnovation, CA).
MEASURED METRIC: IC50

COMPOUND | SYSTEM TESTED | RESULT VALUE
Cc1ccc(NS(=O)(=O)c2cc3c(cc2Cl)NC(=O)C(C)O3)cc1 (stereo not shown) | CB1 (CNR1) (Homo sapiens, UniProt P21554) | ≥ 25 µM
CCc1cccc(NS(=O)(=O)c2cc(Br)cc3c2OCCNC3=O)c1 | CB1 (CNR1) (Homo sapiens, UniProt P21554) | 1 to 25 µM
CCC1Oc2c(cc(Cl)cc2S(=O)(=O)Nc2ccc(F)cc2Cl)NC1=O (stereo not shown) | CB1 (CNR1) (Homo sapiens, UniProt P21554) | 1 to 25 µM
CC(C)CC1Oc2cc(S(=O)(=O)Nc3ccc(C(C)C)cc3)c(Br)cc2NC1=O (stereo not shown) | CB1 (CNR1) (Homo sapiens, UniProt P21554) | ≥ 25 µM

###

- SYSTEM TESTED: CB1 (CNR1) (Homo sapiens, UniProt P21554)
- EXPERIMENT SUMMARY: cAMP CNR1 Hunter cell line antagonist assay (CB1 assay)
- CONDITION SET: antagonist mode, cAMP CNR1 Hunter cells, EC80 agonist; read-out: CB1 assay, Efficacy (IC50)
Quick reference: IC50 of the listed items.
MEASURED METRIC: IC50

COMPOUND | MEASURED METRIC | RESULT VALUE
CCc1cccc(NS(=O)(=O)c2cc(Br)cc3c2OC(CC)C(=O)N3C)c1 (stereo not shown) [BC19915] | IC50 | 1 to 25 µM
N#Cc1ccc(NS(=O)(=O)c2cc3c(cc2Br)NC(=O)CCO3)cc1 [BC19695] | IC50 | ≥ 25 µM
CCC1Oc2c(cc(Br)cc2S(=O)(=O)Nc2cccc(Cl)c2)NC1=O (stereo not shown) [BC19232] | IC50 | ≥ 25 µM
CCC1Oc2cc(S(=O)(=O)Nc3ccc(Cl)cc3)c(Cl)cc2NC1=O (stereo not shown) [BC19739] | IC50 | 1 to 25 µM

###

Quick reference: pIC50 of the listed items.
- SYSTEM TESTED: CB1 (CNR1) (Homo sapiens, UniProt P21554)
- EXPERIMENT SUMMARY: cAMP CNR1 Hunter cell line antagonist assay (CB1 assay)
- Format: cell-based
- CONDITION SET: antagonist mode, cAMP CNR1 Hunter cells, EC80 agonist; read-out: CB1 assay, Efficacy (IC50)
pIC50: −log10 of the molar value.

MOLECULE | SYSTEM TESTED | pIC50
O=C1NCCOc2c1cc(Br)cc2S(=O)(=O)Nc1cccc(F)c1 | CB1 (CNR1) (Homo sapiens, UniProt P21554) | 4.60 to 6.00
O=C1CCOc2c(cc(Br)cc2S(=O)(=O)Nc2ccc(Cl)cc2)N1 | CB1 (CNR1) (Homo sapiens, UniProt P21554) | ≤ 4.60
CC1Oc2c(cc(Cl)cc2S(=O)(=O)Nc2ccc(C(C)C)cc2)NC1=O (centres unmarked) | CB1 (CNR1) (Homo sapiens, UniProt P21554) | 4.60 to 6.00
CS(=O)(=O)c1cc2c(c(S(=O)(=O)Nc3ccc(Cl)cc3)c1)OCC(=O)N2 | CB1 (CNR1) (Homo sapiens, UniProt P21554) | ≤ 4.60
CCc1cccc(NS(=O)(=O)c2cc(S(C)(=O)=O)cc3c2OCC(=O)N3)c1 | CB1 (CNR1) (Homo sapiens, UniProt P21554) | ≤ 4.60

###

Quick reference: pIC50 of the listed items.
- SYSTEM TESTED: CB1 (CNR1) (Homo sapiens, UniProt P21554)
- EXPERIMENT SUMMARY: cAMP CNR1 Hunter cell line antagonist assay (CB1 assay)
- CONDITION SET: antagonist mode, cAMP CNR1 Hunter cells, EC80 agonist; read-out: CB1 assay, Efficacy (IC50)
- Description: cAMP CNR1 Hunter cell line (Eurofins DiscoveryX) were expanded from freezer stocks and seeded in a total volume of 20 μL into white walled, 384-well microplates and incubated at 37° C. for the appropriate time prior to testing. […] Microplates were read following signal generation with a PerkinElmer Envision™ instrument for chemiluminescent signal detection. Compound activity (IC50) was analyzed using CBIS data analysis suite (ChemInnovation, CA).
pIC50: −log10 of the molar value.

MOLECULE | pIC50
O=C1NCCOc2c1cc(Br)cc2S(=O)(=O)Nc1cccc(Cl)c1 | ≤ 4.60
COCCNC(=O)N1c2cc(S(=O)(=O)N3CCCC3)ccc2NC(=O)C1C (stereo not shown) | 4.60 to 6.00
CC1Oc2cc(S(=O)(=O)NCc3ccc(OC(F)(F)F)cc3)c(Br)cc2NC1=O (stereo not shown) | 4.60 to 6.00
CCC1Oc2c(cc(Cl)cc2S(=O)(=O)Nc2ccc(OC)c(Cl)c2)NC1=O (stereo not shown) | ≤ 4.60
CCc1ccc(NS(=O)(=O)c2cc3c(cc2Br)NC(=O)C(C)O3)cc1 (stereo not shown) | > 6.00
CC(C)CC1Oc2c(cc(Br)cc2S(=O)(=O)Nc2ccccc2)NC1=O (stereo not shown) | 4.60 to 6.00
CC1Oc2cc(S(=O)(=O)Nc3ccc(OC(F)(F)F)cc3)c(Cl)cc2NC1=O (stereo not shown) | ≤ 4.60
CC1Oc2cc(S(=O)(=O)Nc3cccc(F)c3)c(Br)cc2N(C)C1=O (stereo not shown) | 4.60 to 6.00
CC1Oc2c(cc(Br)cc2S(=O)(=O)NCCc2ccc(OC(F)(F)F)cc2)NC1=O (stereo not shown) | 4.60 to 6.00
CC1Oc2cc(S(=O)(=O)Nc3ccc(F)cc3)c(Cl)cc2NC1=O (stereo not shown) | > 6.00
O=C(O)c1cc2c(c(NS(=O)(=O)c3ccc(F)c(F)c3)c1)N1CCCC1C(=O)N2 (stereo not shown) | 4.60 to 6.00
CC(C)CC1Oc2c(cc(Br)cc2S(=O)(=O)Nc2ccc(F)cc2F)NC1=O (stereo not shown) | 4.60 to 6.00
CC1Oc2cc(S(=O)(=O)Nc3ccc(F)cc3F)c(Cl)cc2NC1=O (stereo not shown) | 4.60 to 6.00
CC1Oc2cc(S(=O)(=O)N3CCCC3)c(Cl)cc2NC1=O (stereo not shown) | ≤ 4.60
CC1Oc2cc(S(=O)(=O)Nc3ccc(C#N)cc3)c(Cl)cc2NC1=O (stereo not shown) | > 6.00
CCC1Oc2c(cc(Br)cc2S(=O)(=O)NC2CCC(O)CC2)NC1=O (stereo not shown) | 4.60 to 6.00
O=C1COc2c(cc(Br)cc2S(=O)(=O)NCc2ccc(OC(F)(F)F)cc2)N1 | ≤ 4.60
O=C1COc2cc(S(=O)(=O)Nc3ccc(Cl)cc3)c(Cl)cc2N1 | > 6.00
CC(C)c1ccc(NS(=O)(=O)c2cc(Br)cc3c2OCCC(=O)N3)cc1 | ≤ 4.60
O=C1NCCOc2c1cc(Br)cc2S(=O)(=O)Nc1ccc(F)cc1 | ≤ 4.60
CC1Oc2cc(S(=O)(=O)Nc3ccc(C(C)C)cc3)c(Cl)cc2NC1=O (stereo not shown) | ≤ 4.60
O=C1NCCOc2c1cc(Br)cc2S(=O)(=O)Nc1ccccc1 | ≤ 4.60
